- measurement description: Cytotoxicity in murine macrophages (MTT)
- Format: cell-based, mouse
- test settings: mouse, 37 °C, read-out: J774.2 Cell Line CC50 (µM ± SD)

- structure smiles: "CNC(=O)c1cc(Oc2ccc(NC(=O)Nc3ccc(Cl)c(C(F)(F)F)c3)cc2)ccn1"
  CC50 at 48 h [µM]: 64.9

* * *

- measurement description: Cytotoxicity in murine macrophages (MTT)
- Assay type: cell-based, mouse
- test settings: mouse, J774.2 macrophage cells, 37 °C, read-out: J774.2 Cell Line CC50 (µM ± SD)
- Experimental: This assay was performed on mouse macrophages from the J774.2 cell line that were recloned from the original ascites and solid tumor J774.1 (according to the fabricant). […] The metabolic activity of the cells was determined using the MTT method. The percentage of cell viability was calculated, and the mean cytotoxic concentration (CC50) was determined using probit analysis. […] The selectivity index (SI) was calculated for the promastigotes of L. mexicana and the autochthonous isolate (CC50/IC50).

- compound: "C[C@H]1[C@H](C)CC[C@]2(C(=O)O)CC[C@]3(C)C(=CC[C@@H]4[C@@]5(C)CC[C@H](O)C(C)(C)[C@@H]5CC[C@]43C)[C@H]12 [Compound B-3, ursolic acid]"
  CC50 at 48 h (µM): 49.2

* * *

- Test system: promastigote of both L. mexicana strains
- measurement description: In vitro leishmanicidal activity, promastigote of both L. mexicana strains (abstract)
- Assay type: cell-based, Leishmania mexicana
- test settings: Leishmania mexicana, rounded value of the abstract
pIC50: −log10 of the molar value.
property: pIC50

- compound: "CCc1cc2c(cc1CC)CC(NC[C@H](O)c1ccc(O)c3[nH]c(=O)ccc13)C2 [Compound S-8, indacaterol]"
  property: "pIC50"
  measured number: 4.26
